- Test Method Notes: Pharmacokinetics and oral bioavailability of D11.2 in male SD rats (IV, PO, SQ)
- Assay type: in vivo
- Assay Conditions: male, Sprague-Dawley, rat, plasma, sc, 1 mg/kg, SQ 1 mg/kg, individual rats R7, R8, R9
Where a SMILES comes first, the peptide text is derived from it. [ ]: non-standard residue; d: D form. NMeL = CN[C@@H](CC(C)C)C(=O)O; Sar = CNCC(=O)O
Observed Property: bioavailability (%)
// units = %; emit number, no label

May I ask what bioavailability has been recorded for CC[C@@H](C)[C@H]1NC(=O)[C@@H]2CCCN2C(=O)[C@@H]([C@H](C)CC)NC(=O)CN(C)C(=O)[C@H](CC(C)C)NC(=O)[C@@H](Cc2ccccc2)NC(=O)[C@H](CC(C)C)N(C)C(=O)[C@H]2CCCN2C(=O)[C@@H](CC(C)C)NC(=O)[C@H](CC(C)C)NC(=O)[C@H]2CCCN2C1=O [Design D11.2] (cyclo(L[Sar][dI]P[dI][dP]L[dL][dP][NMeL][dF])) ?
92.1
